Ref: paper PMC10395314

- targetSystem: VEGFR-2 (Homo sapiens)
- Sequence (P35968 20-1356): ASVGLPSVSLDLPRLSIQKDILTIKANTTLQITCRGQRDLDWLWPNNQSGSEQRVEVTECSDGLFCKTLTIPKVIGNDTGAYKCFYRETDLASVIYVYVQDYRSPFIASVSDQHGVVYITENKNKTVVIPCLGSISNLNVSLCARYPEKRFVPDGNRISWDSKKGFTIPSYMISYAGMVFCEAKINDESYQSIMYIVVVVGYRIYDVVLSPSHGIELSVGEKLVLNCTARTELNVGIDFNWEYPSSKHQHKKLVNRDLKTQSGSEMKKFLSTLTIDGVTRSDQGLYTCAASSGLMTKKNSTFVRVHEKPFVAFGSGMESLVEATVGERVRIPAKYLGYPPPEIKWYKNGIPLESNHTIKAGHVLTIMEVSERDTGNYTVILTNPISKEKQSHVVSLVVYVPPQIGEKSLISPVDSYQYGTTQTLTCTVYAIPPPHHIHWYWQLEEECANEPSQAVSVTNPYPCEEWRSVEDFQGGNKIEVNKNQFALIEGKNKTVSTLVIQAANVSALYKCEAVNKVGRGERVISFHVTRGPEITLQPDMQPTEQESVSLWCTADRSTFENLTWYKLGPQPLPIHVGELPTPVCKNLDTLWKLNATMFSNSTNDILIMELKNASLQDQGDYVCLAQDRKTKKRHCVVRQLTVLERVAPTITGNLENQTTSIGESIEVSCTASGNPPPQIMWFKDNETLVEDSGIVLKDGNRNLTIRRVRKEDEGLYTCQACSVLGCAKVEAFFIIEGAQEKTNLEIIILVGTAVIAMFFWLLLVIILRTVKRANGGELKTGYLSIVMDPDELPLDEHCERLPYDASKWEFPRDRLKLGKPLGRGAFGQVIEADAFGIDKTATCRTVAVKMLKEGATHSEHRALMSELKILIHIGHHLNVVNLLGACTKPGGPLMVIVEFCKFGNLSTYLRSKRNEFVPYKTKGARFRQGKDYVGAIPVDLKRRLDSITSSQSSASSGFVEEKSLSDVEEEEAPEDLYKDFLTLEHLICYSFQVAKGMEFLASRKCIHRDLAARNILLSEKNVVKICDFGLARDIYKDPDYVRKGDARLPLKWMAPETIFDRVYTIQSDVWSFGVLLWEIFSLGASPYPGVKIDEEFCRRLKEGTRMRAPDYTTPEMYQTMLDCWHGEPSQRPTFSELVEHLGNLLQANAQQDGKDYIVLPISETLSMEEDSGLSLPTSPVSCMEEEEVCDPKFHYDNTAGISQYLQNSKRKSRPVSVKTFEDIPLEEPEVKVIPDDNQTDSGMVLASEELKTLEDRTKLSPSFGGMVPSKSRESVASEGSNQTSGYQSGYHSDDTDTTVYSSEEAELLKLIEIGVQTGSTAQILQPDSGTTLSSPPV
pIC50: −log10 of the molar value.
measurementKind: pIC50

> print(dat)
                                   compound  assayvalue
1  CC(=NNC(=O)c1cccc(Br)c1)c1ccc(NC(=O)Cn2c(=O)c3c(ncn3C)n(C)c2=O)cc1 [Compound 15a]        6.62
